Data provenance is patent US10975056B2.

System: erythroid progenitor cells (EPCs)
protocol details: Fetal hemoglobin (HbF) ELISA in day 7 erythroid progenitor cells;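 also: for fetal hemoglobin induction normalized to vehicle-treated cells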
Format: cell-based, human
protocol conditions: Homo sapiens, Erythroid progenitor cell, HbF ELISA, day 7 EPCs, 5 days; read-out: EPC ELISA (pEC50 category) (converted)
Structures can show the parent of a compound that is named as a salt.
Quick reference: EC50 of the listed items.

Reference set (2 entries):
compound | value type | value observed
CCc1c(C#N)c(S[C@@H](C(N)=O)c2ccccc2)nc(N2CC[C@@H](NC(=O)OC(C)(C)C)[C@@H](O)C2)c1C#N | EC50 | < 0.316 µM
CCc1c(C#N)c(SC(C(N)=O)c2ccccc2)nc(N2CCC3(CCCN(CC4CC4)C3)CC2)c1C#N (stereo not drawn) [Example 119, hydrochloride] | EC50 | < 0.316 µM

Let's switch to this compound now.
Q: Data request, read-out EC50, for CCc1c(C#N)c(SC(C(N)=O)c2ccccc2)nc(N2CCC(NCC(N)=O)CC2)c1C#N (stereo not drawn)
Result: 0.316 to 1 µM
